test: physchem; format: physicochemical
quantity name: pKa

>>> test_result("CC(=O)O[C@H]1CC[C@@]2(C)C(=CC[C@@H]3[C@@H]2CC[C@]2(C)C(c4cccnc4)=CC[C@@H]32)C1 [abiraterone acetate]")
5.19
